B1: Hairpin Ribozyme (parent)
chain: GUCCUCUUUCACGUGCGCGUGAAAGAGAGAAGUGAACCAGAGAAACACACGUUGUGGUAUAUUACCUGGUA

- Variants of: B1
- PROTOCOL DESCRIPTION: self-cleavage, relative activity (ratio to wild type); higher = more cleavage; co-transcriptional
MEASUREMENT NAME: self-cleavage

Recorded self-cleavage of GCCCUCUUUCACGUGCGCGUGAAAGAGAGAAGUGACCCAGAGAAACACACGUUGUGGUAUAUUACCUGGUA [U2C A36C] , please.
0.17

Fill in: self-cleavage of GUCCUCUUUCACGUGCGCGUGAAAGAGAGAAGUGAACCAGAGAAACACACCUUGUGGUAUAUUAUCUGGUA [G51C C65U] is ___
0.296

Could you tell me which self-cleavage is on file for GUCCUUUUUCACGUGCGCGUGAAAGAGAGAAGUGAACCAGAGAAUCACACGUUGUGGUAUAUUACCUGGUA [C6U A45U] ?
0.194

Returns the measured self-cleavage for the input variant. Input: GUCCUCUUUCACGUGCGCGUGAAAGAGAGAAGUGAAGCAGAGAAACACACGUUGUGGUCUAUUACCUGGUA [C37G A59C]
0.0453

Give the measured self-cleavage of GUCCUCUUUCACGUGCGCGUGAAAGAGAGAAGUGAACCAGAGAAACGCACGUUGUGGUAUAUUACGUGGUA [A47G C66G] .
0.128

For the variant shown here, GUCCUCCUUCACGUGCGCGUGAAAGAGAGAAGUGAACCAGAGAAACACACUUUGUGGUAUAUUACCUGGUA [U7C G51U] , give the reported self-cleavage.
1.1
